B1: Pistol ribozyme (parent)
chain: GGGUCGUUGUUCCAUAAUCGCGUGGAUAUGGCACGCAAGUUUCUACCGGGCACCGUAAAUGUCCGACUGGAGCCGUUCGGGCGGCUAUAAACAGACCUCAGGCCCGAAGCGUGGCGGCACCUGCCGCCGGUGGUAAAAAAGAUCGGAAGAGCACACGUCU

- Variants of: B1
- EXPERIMENTAL DETAILS: aptazyme ON/OFF ratio, guanine; higher = stronger switching; co-transcriptional cleavage with and without guanine
ENDPOINT NAME: aptazyme ON/OFF ratio
In your answer, state the number alone without any accompanying words.

Which aptazyme ON/OFF ratio reading was recorded for the variant U7C U8C G9A U11G C12G ?
1.35

What do you have for U7C U8A G9U U11A C12A C13U ?
1.41

What do you have for U7A U8A U11A C12U ?
1.31

What do you have for G9C U10G U11A C12G C13U ?
1.07

What do you have for U7A U8A U10C U11A C12A C13U ?
1.16

What do you have for U7G U8G G9U U10A U11G C12G C13A ?
1.13

What do you have for U8A G9A U10A U11G C12G ?
1.15

What do you have for U7G U8C G9U U10G U11C C12A C13G ?
1.45

What do you have for U7C U8A U10C U11C C13G ?
1.09

What do you have for U7A U8G U10A U11G C13G ?
1.23

What do you have for U7C G9C U10G U11A C12G ?
1.23

What do you have for U7A U8G U10G U11A C12G C13A ?
1.24

What do you have for U7G U8C G9U U10A C13G ?
1.08

What do you have for U7A G9U U10C U11A C13G ?
1.1

What do you have for U8A G9A U10C U11G C12G C13A ?
1.28

What do you have for U10C U11C C12G C13G ?
1.16

What do you have for U7C G9A U10C U11C C12G C13A ?
1.09

What do you have for U7G U10G U11A C12U ?
1.1
